Molecular target: human TLR7 (Homo sapiens, UniProt Q9NYK1)
Assay: TLR7 inhibition reporter assay (HEK-Blue SEAP)
Details: HEK-Blue cells overexpressing human TLR7, gardiquimod 7.5 μM, 22 hour incubation
pIC50: −log10 of the molar value.
Outcome: class 1 for pIC50 of at least 8; class 0 for anything lower.

Asked: Given COc1cc(-c2cc3[nH]c(=O)n([C@@H]4CCCN(C5CCOCC5)C4)c3cc2C(C)C)cn2ncnc12 [Example 143] , state whether its pIC50 is at least 8.
Given back: class 1

Asked: Given CCC(CC)CN1CCC[C@@H](n2c(=O)[nH]c3cc(-c4cc(C)c5ncnn5c4)c(C)cc32)C1 [Example 45] , state whether its pIC50 is at least 8.
Given back: class 0

Asked: Given Cc1c(-c2cc3[nH]c(=O)n([C@H]4CC[C@@H](N(C)C)CC4)c3cc2C(C)C)cn2ncnc2c1C [Example 185] , state whether its pIC50 is at least 8.
Given back: class 1

Asked: Given COc1cc(-c2cc3[nH]c(=O)n([C@@H]4CCCN(CC5CC5)C4)c3cc2C(C)C)cn2ncnc12 [Example 142] , state whether its pIC50 is at least 8.
Given back: class 1

Asked: Given CCCN1CCC[C@H](n2c(=O)[nH]c3cc(-c4cc(OC)c5ncnn5c4)c(C(C)C)cc32)C1 [Example 121] , state whether its pIC50 is at least 8.
Given back: class 0

Asked: Given COc1cc(-c2ccc3c(c2)[nH]c(=O)n3C2CCNCC2)cn2ncnc12 [1 EI] , state whether its pIC50 is at least 8.
Given back: class 0

Asked: Given CCCN1CCC[C@@H](n2c(=O)[nH]c3cc(-c4cn5ncnc5c(C)c4C)c(C(C)C)cc32)C1 [Example 150] , state whether its pIC50 is at least 8.
Given back: class 1

Asked: Given COc1cc(-c2cc3[nH]c(=O)n(C4CCC(N5C6CCC5COC6)CC4)c3cc2C(C)C)cn2ncnc12 (single isomer, unassigned) [Example 253] , state whether its pIC50 is at least 8.
Given back: class 1

###

Biological target: human TLR7 (Homo sapiens, UniProt Q9NYK1)
Experiment: TLR7 inhibition reporter assay (HEK-Blue SEAP)
Conditions: HEK-Blue cells overexpressing human TLR7, gardiquimod 7.5 μM, 22 hour incubation
Description: TLR7/8/9 Inhibition Reporter Assays Briefly, cells are seeded into Greiner 384 well plates (15000 cells per well for TLR7, 20,000 for TLR8 and 25,000 for TLR9) and then treated with test compounds in DMSO to yield a final dose response concentration range of 0.05 nM-50 μM. […] The percent inhibition is determined as the % reduction in the HEK-Blue signal present in wells treated with agonist plus DMSO alone compared to wells treated with a known inhibitor.
IC50 class ranges: 1 (below 5 nM), 2 (5 nM to below 20 nM), 3 (20 nM or more)

Asked: Class? Entry: COc1cc(-c2cc3[nH]c(=O)n([C@H]4CC[C@H](NCC(C)C)CC4)c3cc2C(C)C)cn2ncnc12 [Example 204]
Given back: 1

Asked: Class? Entry: CCCN(CCC)[C@H]1CC[C@@H](n2c(=O)[nH]c3cc(-c4cc(OC)c5ncnn5c4)c(CC)cc32)CC1 [Example 168]
Given back: 2

Asked: Class? Entry: Cc1cc2c(cc1-c1cc(C)c3ncnn3c1)[nH]c(=O)n2C1CCCNC1 (stereo not drawn) [1 EC]
Given back: 3

Asked: Class? Entry: CCN[C@H]1CC[C@@H](n2c(=O)[nH]c3cc(-c4cn5ncnc5c(C)c4C)c(C(C)C)cc32)CC1 [Example 189]
Given back: 2

Asked: Class? Entry: COc1cc(-c2cc3[nH]c(=O)n([C@H]4CC[C@H](N(CC(C)C)CC(C)C)CC4)c3cc2C(C)C)cn2ncnc12 [Example 205]
Given back: 1

Asked: Class? Entry: COc1cc(-c2cc3[nH]c(=O)n(C4CCC(N5CC6(COC6)C5)CC4)c3cc2C(C)C)cn2ncnc12 (stereo not drawn) [Example 254]
Given back: 2

Asked: Class? Entry: COc1cc(-c2cc3[nH]c(=O)n([C@H]4CC[C@@H](N)CC4)c3cc2C)cn2ncnc12 [1 EG]
Given back: 3

Asked: Class? Entry: COc1cc(-c2cc3[nH]c(=O)n([C@@H]4CCCN(C(C)C)C4)c3cc2C(F)(F)F)cn2ncnc12 [Example 111]
Given back: 3

Asked: Class? Entry: CCc1cc2c(cc1-c1cc(OC)c3ncnn3c1)[nH]c(=O)n2[C@@H]1CCCN(CC(CC)CC)C1 [Example 178]
Given back: 1

Asked: Class? Entry: COc1c(C)c(-c2cc3[nH]c(=O)n(C4CCC(N5CCCOCC5)CC4)c3cc2C(C)C)cn2ncnc12 (single isomer, unassigned) [Example 262]
Given back: 1

Asked: Class? Entry: CCc1cc2c(cc1-c1cc(OC)c3ncnn3c1)[nH]c(=O)n2[C@@H]1CCCN(C2CCCOC2)C1 (stereo partly drawn) [Example 215]
Given back: 2

Asked: Class? Entry: Cc1cc2c(cc1-c1cc(C)c3ncnn3c1)[nH]c(=O)n2C1CCN(C(=O)CN(C)C)CC1 [Example 101]
Given back: 3

Asked: Class? Entry: COc1cc(-c2cc3[nH]c(=O)n([C@@H]4CCCN(C)C4)c3cc2C(C)C)cn2ncnc12 [Example 136]
Given back: 1

Asked: Class? Entry: COc1cc(-c2cc3[nH]c(=O)n([C@H]4CCCN(CCC(C)C)C4)c3cc2C(C)C)cn2ncnc12 [Example 132]
Given back: 2

Asked: Class? Entry: COc1cc(-c2cc3[nH]c(=O)n(C4CCC(N5CCC(F)(F)CC5)CC4)c3cc2C(C)C)cn2ncnc12 (single isomer, unassigned) [Example 247]
Given back: 3

###

What pIC50 was measured for each of the following?
Biological target: human TLR7 (Homo sapiens, UniProt Q9NYK1)
Sequence (Q9NYK1 27-1049): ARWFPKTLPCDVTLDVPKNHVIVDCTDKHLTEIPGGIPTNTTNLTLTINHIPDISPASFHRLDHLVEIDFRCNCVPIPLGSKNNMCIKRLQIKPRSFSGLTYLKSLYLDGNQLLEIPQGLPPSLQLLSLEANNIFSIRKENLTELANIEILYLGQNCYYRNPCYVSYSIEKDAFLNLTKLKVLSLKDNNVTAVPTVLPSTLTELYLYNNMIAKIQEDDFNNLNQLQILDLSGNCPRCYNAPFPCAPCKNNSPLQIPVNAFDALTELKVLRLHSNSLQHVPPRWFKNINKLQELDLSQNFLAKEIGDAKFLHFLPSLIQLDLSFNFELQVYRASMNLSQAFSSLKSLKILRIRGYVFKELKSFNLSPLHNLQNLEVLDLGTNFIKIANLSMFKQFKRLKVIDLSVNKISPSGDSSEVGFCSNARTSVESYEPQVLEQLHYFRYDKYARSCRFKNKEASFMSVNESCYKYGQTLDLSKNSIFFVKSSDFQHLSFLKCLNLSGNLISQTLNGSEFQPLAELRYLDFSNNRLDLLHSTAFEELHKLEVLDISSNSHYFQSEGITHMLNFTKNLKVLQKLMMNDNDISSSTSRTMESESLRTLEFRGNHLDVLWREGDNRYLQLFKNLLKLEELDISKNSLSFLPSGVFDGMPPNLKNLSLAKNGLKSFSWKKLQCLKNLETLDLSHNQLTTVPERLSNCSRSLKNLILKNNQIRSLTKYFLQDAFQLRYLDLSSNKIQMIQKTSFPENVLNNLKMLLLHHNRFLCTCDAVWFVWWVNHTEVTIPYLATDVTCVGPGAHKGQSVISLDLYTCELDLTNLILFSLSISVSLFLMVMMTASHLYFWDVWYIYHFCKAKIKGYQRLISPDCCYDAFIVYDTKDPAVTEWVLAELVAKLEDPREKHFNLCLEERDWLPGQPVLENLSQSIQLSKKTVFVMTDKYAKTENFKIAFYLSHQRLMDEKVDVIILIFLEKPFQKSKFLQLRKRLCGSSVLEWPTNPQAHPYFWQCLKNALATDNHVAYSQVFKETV
Assay: TLR7 inhibition reporter assay (HEK-Blue SEAP)
Settings: HEK-Blue cells overexpressing human TLR7, gardiquimod 7.5 μM, 22 hour incubation
Method: TLR7/8/9 Inhibition Reporter Assays Briefly, cells are seeded into Greiner 384 well plates (15000 cells per well for TLR7, 20,000 for TLR8 and 25,000 for TLR9) and then treated with test compounds in DMSO to yield a final dose response concentration range of 0.05 nM-50 μM. […] The percent inhibition is determined as the % reduction in the HEK-Blue signal present in wells treated with agonist plus DMSO alone compared to wells treated with a known inhibitor.
Reminder that pIC50 is minus the log10 of a molar concentration.

Measured pIC50, COc1cc(-c2cc3[nH]c(=O)n([C@@H]4CCCN(CC5CCOCC5)C4)c3cc2C(F)(F)F)cn2ncnc12 : 7.51

Measured pIC50, COc1cc(-c2ccc3c(c2)[nH]c(=O)n3C2CCN(C3CCC3)CC2)cn2ncnc12 : 5.61

Measured pIC50, COc1cc(-c2cc3[nH]c(=O)n([C@H]4CCCN(CC5CCC5)C4)c3cc2C(C)C)cn2ncnc12 : 7.76

Measured pIC50, Cc1cc2c(cc1-c1cc(C)c3ncnn3c1)[nH]c(=O)n2[C@H]1CC[C@H](N(C)C)CC1 : 7.42

Measured pIC50, CCC(CC)CN1CCC(n2c(=O)[nH]c3cc(-c4cc(OC)c5ncnn5c4)ccc32)CC1 : 5.87

Measured pIC50, CCN1CCC(n2c(=O)[nH]c3cc(-c4cc(C)c5ncnn5c4)c(C)cc32)CC1 : 7.41

Measured pIC50, Cc1cc2c(cc1-c1cc(C)c3ncnn3c1)[nH]c(=O)n2[C@H]1CC[C@@H](N(C)C)CC1 : 7.67
